Origin of values: ChEMBL document CHEMBL1201862

Each entry below carries its reported AC50.
biological target: Replicative DNA helicase DnaB (Mycobacterium tuberculosis, UniProt P9WMR3); assay: DnaB intein splicing inhibitors, dose response, biochemical, cell-free fluorescence (AID 449749); format: functional
Sequence (P9WMR3 1-399, added parts left off): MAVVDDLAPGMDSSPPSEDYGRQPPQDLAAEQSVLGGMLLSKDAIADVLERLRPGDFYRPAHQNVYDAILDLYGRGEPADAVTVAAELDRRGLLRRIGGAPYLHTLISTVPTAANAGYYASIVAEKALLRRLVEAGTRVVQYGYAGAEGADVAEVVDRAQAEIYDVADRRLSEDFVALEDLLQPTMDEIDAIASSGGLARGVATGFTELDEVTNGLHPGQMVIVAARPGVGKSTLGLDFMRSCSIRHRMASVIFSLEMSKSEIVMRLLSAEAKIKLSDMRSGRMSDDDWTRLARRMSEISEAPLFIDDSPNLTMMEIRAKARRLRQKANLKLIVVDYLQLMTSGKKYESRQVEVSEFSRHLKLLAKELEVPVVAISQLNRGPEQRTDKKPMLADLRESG
The source made the active and inactive calls. No stated cut-off is given here; in the data, actives have a measured AC50 and inactives only a lower limit.

{"compound": "Cc1ccc(N2C(=O)C(Cl)=C(N3CCOCC3)C2=O)cc1Cl", "test-system": "Replicative DNA helicase DnaB (Mycobacterium tuberculosis, UniProt P9WMR3)", "AC50": "6.76 µM (active)"}
{"compound": "Cc1[nH]n(-c2ccccc2)c(=O)c1/C=C1/C(=O)NN(c2ccc(F)c(Cl)c2)C1=O", "test-system": "Replicative DNA helicase DnaB (Mycobacterium tuberculosis, UniProt P9WMR3)", "AC50": "4.54 µM (active)"}
{"compound": "Cc1ccc(NC2=CC(=O)C(=O)c3ccccc32)cc1", "test-system": "Replicative DNA helicase DnaB (Mycobacterium tuberculosis, UniProt P9WMR3)", "AC50": "0.971 µM (active)"}
{"compound": "Cc1n[nH]c(O)c1C(c1ccc([N+](=O)[O-])cc1)c1c(C)n[nH]c1O", "test-system": "Replicative DNA helicase DnaB (Mycobacterium tuberculosis, UniProt P9WMR3)", "AC50": "0.704 µM (active)"}
{"compound": "O=C(Nc1ccccc1N(C(=O)c1ccco1)S(=O)(=O)c1cccs1)c1ccco1", "test-system": "Replicative DNA helicase DnaB (Mycobacterium tuberculosis, UniProt P9WMR3)", "AC50": "5.6 µM (active)"}
{"compound": "COc1ccc(C(c2c(C)n[nH]c2O)c2c(C)n[nH]c2O)cc1Br", "test-system": "Replicative DNA helicase DnaB (Mycobacterium tuberculosis, UniProt P9WMR3)", "AC50": "0.32 µM (active)"}
{"compound": "CCOc1ccc(S(=O)(=O)Nc2cc(SCC(=O)O)c(O)c3ccccc23)cc1", "test-system": "Replicative DNA helicase DnaB (Mycobacterium tuberculosis, UniProt P9WMR3)", "AC50": "20.7 µM (active)"}
{"compound": "O=C(O)c1ccc(S(=O)(=O)/N=C2\\C=C(Nc3ccccc3F)C(=O)c3ccccc32)cc1", "test-system": "Replicative DNA helicase DnaB (Mycobacterium tuberculosis, UniProt P9WMR3)", "AC50": "0.146 µM (active)"}

Need AC50 of `O=C(CCl)Nc1sccc1C(=O)c1ccccc1` , thanks.
4.8 µM (active)

Need AC50 of CC1=NNC(=O)C1Cc1ccc(F)cc1 (stereo unspecified) , thanks.
14 µM (active)

Need AC50 of `CCOc1cc(/C=C2\C(=O)N(c3ccc(C(N)=O)cc3)N=C2C)ccc1OC(=O)c1cccs1` , thanks.
2.35 µM (active)
